target desc: T1, Pex13, P80667
T1 sequence (P80667 295-386, looked up): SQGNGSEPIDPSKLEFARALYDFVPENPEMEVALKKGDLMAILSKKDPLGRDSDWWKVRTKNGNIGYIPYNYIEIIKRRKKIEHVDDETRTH
experiment: SPOT array
particulars: median of control spots 1341
# label = bin(measured SPOT intensity), where bins are label 0 = under 3, label 1 = from 3 up to 30, label 2 = 30 and over

>>> df
             binder    class
 0  RRRRRPHRIERPLSN  label 0
 1  PIVPSSPAPPLPLSG  label 0
 2  PPIPNAPLSPAPAVP  label 0
 3  FSRRQSMDIPSKNRN  label 2
 4  NGRRRPKFRVQLSGN  label 1
 5  IPSRPAPKPPSSASA  label 2
 6  FIRKRAPTPPAPSRS  label 1
 7  VPPPMQPPPIESSNL  label 1
 8  KRNRLKILLPFLEQS  label 1
 9  FYNRTAFQLPGDARV  label 1
10  GERSRPLVISILSSA  label 2
11  GKLKHIPRRPYEIER  label 0
12  LLRRTIPKRPFYHVL  label 1
13  SGVRLPAPPPPPRRG  label 2

Each recorded value in this set is attributed to paper PMC2756588.
